Source: patent US5716982A

Record form. Attribute: inhibition at 0.01 µM. Fill in for each entry.
# System: HL-60 cells
# Protocol text: MTT assay in HL-60 cells
# Type: cell-based, human
# Applied conditions: Homo sapiens; 10^-8 M, MTT, HL-60
Provide a numeric answer, followed by its unit.

Which inhibition at 0.01 µM is reported for this compound? CC(=O)c1cc2ccc(OC(=O)/C=C(C)/C=C/C=C(C)/C=C/C3=C(C)CCCC3(C)C)c(OC(=O)/C=C(C)/C=C/C=C(C)/C=C/C3=C(C)CCCC3(C)C)c2oc1=O
28%

Which inhibition at 0.01 µM is reported for this compound? CCOC(=O)c1cc2c(OC(=O)/C=C(C)/C=C/C=C(C)/C=C/C3=C(C)CCCC3(C)C)cc(OC(=O)/C=C(C)/C=C/C=C(C)/C=C/C3=C(C)CCCC3(C)C)cc2oc1=O
21.8%

Which inhibition at 0.01 µM is reported for this compound? CC(=O)c1cc2c(OC(=O)/C=C(C)/C=C/C=C(C)/C=C/C3=C(C)CCCC3(C)C)c(C(=O)O)ccc2oc1=O
29.7%

Which inhibition at 0.01 µM is reported for this compound? CCOC(=O)c1cc2ccc(OC(=O)/C=C(C)/C=C/C=C(C)/C=C/C3=C(C)CCCC3(C)C)c(C)c2oc1=O
16.2%

Which inhibition at 0.01 µM is reported for this compound? CC1=C(/C=C/C(C)=C/C=C/C(C)=C/C(=O)Oc2cc(C(=O)O)c3cc(C(N)=O)c(=O)oc3c2)C(C)(C)CCC1
9.4%
